- protocol_notes: Lipophilicity, log D of the compound at pH 7.4
- Format: physicochemical
- test_conditions: buffer
property_label: logD

[
  {
    "smiles_data": "COc1ccc(-c2ccc(S[C@H]3O[C@H](CO)[C@@H](O)[C@H](O)[C@@H]3O)c(C)c2)cn1",
    "property_label": "logD",
    "experimental_result": 2.1
  }
]

[A] Cc1cc(-c2ccc(=O)n(C)c2)ccc1S[C@H]1O[C@H](CO)[C@@H](O)[C@H](O)[C@@H]1O
[B] CCCCn1cc(-c2ccc(S[C@H]3O[C@H](CO)[C@@H](O)[C@H](O)[C@@H]3O)c(C)c2)ccc1=O
[C] CCn1cc(-c2ccc(S[C@H]3O[C@H](CO)[C@@H](O)[C@H](O)[C@@H]3O)c(C)c2)ccc1=O
**Q:** Put the items in sequence by logD, from largest down. Please respond by ranking the labels in the order requested.
**A:** B, C, A

[1] CCCCn1ccc(-c2ccc(S[C@H]3O[C@H](CO)[C@@H](O)[C@H](O)[C@@H]3O)c(C)c2)cc1=O
[2] Cc1cc(-c2ccc(=O)n(CC(C)(C)O)c2)ccc1S[C@H]1O[C@H](CO)[C@@H](O)[C@H](O)[C@@H]1O
**Q:** Higher logD: 1 or 2 ? Kindly state the label of the option you pick.
**A:** 1

[1] Cc1cc(-c2ccc(N3CCC3)nc2)ccc1S[C@H]1O[C@H](CO)[C@@H](O)[C@H](O)[C@@H]1O
[2] Cc1cc(-c2ccc(=O)n(-c3ccccc3)c2)ccc1S[C@H]1O[C@H](CO)[C@@H](O)[C@H](O)[C@@H]1O
**Q:** Higher logD: 1 or 2 ? Kindly state the label of the option you pick.
**A:** 1

[a] Cc1cc(-c2ccc(=O)n(CC(C)C)c2)ccc1S[C@H]1O[C@H](CO)[C@@H](O)[C@H](O)[C@@H]1O
[b] CSc1ccc(-c2ccc(S[C@H]3O[C@H](CO)[C@@H](O)[C@H](O)[C@@H]3O)c(C)c2)cn1
**Q:** Could you check which of a and b has a smaller value for logD? Kindly state the label of the option you pick.
**A:** a

---

- target_of_assay: hERG (KCNH2) (Homo sapiens)
- Sequence (Q12809 whole entry): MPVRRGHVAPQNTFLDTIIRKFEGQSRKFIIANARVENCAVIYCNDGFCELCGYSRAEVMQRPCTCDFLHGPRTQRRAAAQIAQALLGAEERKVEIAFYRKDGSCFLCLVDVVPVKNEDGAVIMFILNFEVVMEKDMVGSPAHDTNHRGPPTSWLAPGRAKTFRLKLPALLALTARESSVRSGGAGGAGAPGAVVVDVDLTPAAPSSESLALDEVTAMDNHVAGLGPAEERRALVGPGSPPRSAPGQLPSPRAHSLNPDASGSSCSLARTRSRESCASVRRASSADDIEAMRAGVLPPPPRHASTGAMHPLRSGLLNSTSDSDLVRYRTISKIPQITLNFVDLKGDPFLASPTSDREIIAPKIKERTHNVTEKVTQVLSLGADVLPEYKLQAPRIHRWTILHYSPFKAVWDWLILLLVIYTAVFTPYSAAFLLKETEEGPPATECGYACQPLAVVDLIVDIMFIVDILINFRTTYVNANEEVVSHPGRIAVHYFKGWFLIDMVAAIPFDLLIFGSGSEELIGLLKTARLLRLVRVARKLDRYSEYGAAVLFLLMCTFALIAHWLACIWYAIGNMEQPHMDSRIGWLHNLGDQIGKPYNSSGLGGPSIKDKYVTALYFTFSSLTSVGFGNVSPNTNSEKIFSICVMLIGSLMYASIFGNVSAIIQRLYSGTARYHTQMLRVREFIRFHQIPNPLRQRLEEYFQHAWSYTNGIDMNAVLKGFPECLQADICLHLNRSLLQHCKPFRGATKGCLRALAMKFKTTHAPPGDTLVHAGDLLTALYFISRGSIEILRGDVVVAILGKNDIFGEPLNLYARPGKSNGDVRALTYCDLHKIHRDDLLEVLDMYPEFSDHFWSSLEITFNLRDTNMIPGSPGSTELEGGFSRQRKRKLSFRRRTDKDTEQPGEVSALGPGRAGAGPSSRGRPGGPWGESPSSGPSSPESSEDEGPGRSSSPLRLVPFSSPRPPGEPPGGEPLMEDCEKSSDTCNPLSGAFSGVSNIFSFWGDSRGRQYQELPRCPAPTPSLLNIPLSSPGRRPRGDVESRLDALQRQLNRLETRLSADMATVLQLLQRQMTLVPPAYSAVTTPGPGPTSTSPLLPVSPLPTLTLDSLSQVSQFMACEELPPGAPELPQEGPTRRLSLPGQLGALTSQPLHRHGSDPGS
- protocol_notes: Inhibition of human ERG at 100 uM relative to control
property_label: inhibition at 100 µM (%)
Your answer is read as %, so omit the unit and give the number.

**Q:** GET /values?readout=inhibition at 100 µM&system=hERG (KCNH2) (Homo sapiens)&item= COc1ccc(-c2ccc(S[C@H]3O[C@H](CO)[C@@H](O)[C@H](O)[C@@H]3O)c(C)c2)cn1
**A:** 10.8

---

- protocol_notes: Solubility of the compound in pH 6.8 JP2 buffer
- Assay type: physicochemical
property_label: solubility (µg/mL)

// known answers, use as guide
[
  {
    "smiles_data": "Cc1cc(-c2ccc(=O)n(C)c2)ccc1S[C@H]1O[C@H](CO)[C@@H](O)[C@H](O)[C@@H]1O",
    "solubility / µg/mL": 719
  },
  {
    "smiles_data": "CSc1ccc(-c2ccc(S[C@H]3O[C@H](CO)[C@@H](O)[C@H](O)[C@@H]3O)c(C)c2)cn1",
    "solubility / µg/mL": 150
  },
  {
    "smiles_data": "CCCCn1cc(-c2ccc(S[C@H]3O[C@H](CO)[C@@H](O)[C@H](O)[C@@H]3O)c(C)c2)ccc1=O",
    "solubility / µg/mL": 740
  },
  {
    "smiles_data": "Cc1cc(-c2ccc(=O)n(-c3ccccc3)c2)ccc1S[C@H]1O[C@H](CO)[C@@H](O)[C@H](O)[C@@H]1O",
    "solubility / µg/mL": 142
  },
  {
    "smiles_data": "Cc1cc(-c2ccc(N3CCC3)nc2)ccc1S[C@H]1O[C@H](CO)[C@@H](O)[C@H](O)[C@@H]1O",
    "solubility / µg/mL": 217
  }
]

[P] Cc1cc(-c2ccc(=O)n(CC(C)C)c2)ccc1S[C@H]1O[C@H](CO)[C@@H](O)[C@H](O)[C@@H]1O
[Q] CCCCn1ccc(-c2ccc(S[C@H]3O[C@H](CO)[C@@H](O)[C@H](O)[C@@H]3O)c(C)c2)cc1=O
**Q:** Could you check which of P and Q has a smaller value for solubility? Kindly state the label of the option you pick.
**A:** Q
(Q: 582 µg/mL, P: 863 µg/mL)

---

- protocol_notes: Metabolic stability in mouse liver microsomes after 30 mins
- Type: ADME, microsome
- test_conditions: read-out: Stability
property_label: remaining at 0.5 h (%)

// known answers, use as guide
[
  {
    "smiles_data": "Cc1cc(-c2ccc(=O)n(-c3ccccc3)c2)ccc1S[C@H]1O[C@H](CO)[C@@H](O)[C@H](O)[C@@H]1O",
    "value_units": "%",
    "experimental_result": 93
  },
  {
    "smiles_data": "Cc1cc(-c2ccc(=O)n(C)c2)ccc1S[C@H]1O[C@H](CO)[C@@H](O)[C@H](O)[C@@H]1O",
    "value_units": "%",
    "experimental_result": 72
  }
]

[1] CCCCn1ccc(-c2ccc(S[C@H]3O[C@H](CO)[C@@H](O)[C@H](O)[C@@H]3O)c(C)c2)cc1=O
[2] CCn1cc(-c2ccc(S[C@H]3O[C@H](CO)[C@@H](O)[C@H](O)[C@@H]3O)c(C)c2)ccc1=O
**Q:** Higher remaining at 0.5 h: 1 or 2 ? Kindly state the label of the option you pick.
**A:** 2
(2: 100%, 1: 60%)

---

- target_of_assay: Type 1 fimbrin D-mannose specific adhesin (Escherichia coli K-12)
- protocol_notes: Inhibition of Escherichia coli UTI89 FimH assessed as reduction in […] guinea pig erythrocyte hemagglutination titer
property_label: EC90 (nM)

// known answers, use as guide
[
  {
    "smiles_data": "CCCCn1cc(-c2ccc(S[C@H]3O[C@H](CO)[C@@H](O)[C@H](O)[C@@H]3O)c(C)c2)ccc1=O",
    "target_of_assay": "Type 1 fimbrin D-mannose specific adhesin (Escherichia coli K-12)",
    "EC90 [nM]": 600
  },
  {
    "smiles_data": "Cc1cc(-c2ccc(=O)n(CC(C)C)c2)ccc1S[C@H]1O[C@H](CO)[C@@H](O)[C@H](O)[C@@H]1O",
    "target_of_assay": "Type 1 fimbrin D-mannose specific adhesin (Escherichia coli K-12)",
    "EC90 [nM]": 2500
  }
]

[A] CCn1cc(-c2ccc(S[C@H]3O[C@H](CO)[C@@H](O)[C@H](O)[C@@H]3O)c(C)c2)ccc1=O
[B] Cc1cc(-c2ccc(=O)n(-c3ccccc3)c2)ccc1S[C@H]1O[C@H](CO)[C@@H](O)[C@H](O)[C@@H]1O
**Q:** Higher EC90: A or B ? Kindly state the label of the option you pick.
**A:** A
(A: 2500 nM, B: 1250 nM)

---

- protocol_notes: Solubility of the compound in pH 6.8 JP2 buffer
- Assay type: physicochemical
property_label: solubility (µg/mL)

[
  {
    "smiles_data": "Cc1cc(-c2ccc(=O)n(CC(C)(C)O)c2)ccc1S[C@H]1O[C@H](CO)[C@@H](O)[C@H](O)[C@@H]1O",
    "solubility (µg/mL)": 729
  },
  {
    "smiles_data": "CCn1cc(-c2ccc(S[C@H]3O[C@H](CO)[C@@H](O)[C@H](O)[C@@H]3O)c(C)c2)ccc1=O",
    "solubility (µg/mL)": 668
  },
  {
    "smiles_data": "COc1ccc(-c2ccc(S[C@H]3O[C@H](CO)[C@@H](O)[C@H](O)[C@@H]3O)c(C)c2)cn1",
    "solubility (µg/mL)": 663
  }
]

---

- protocol_notes: Metabolic stability in mouse liver microsomes after 30 mins
- Assay type: ADME, microsome
- test_conditions: read-out: Stability
property_label: remaining at 0.5 h (%)

[
  {
    "smiles_data": "CCCCn1cc(-c2ccc(S[C@H]3O[C@H](CO)[C@@H](O)[C@H](O)[C@@H]3O)c(C)c2)ccc1=O",
    "experimental_result": 95
  }
]

[a] Cc1cc(-c2ccc(N3CCC3)nc2)ccc1S[C@H]1O[C@H](CO)[C@@H](O)[C@H](O)[C@@H]1O
[b] CSc1ccc(-c2ccc(S[C@H]3O[C@H](CO)[C@@H](O)[C@H](O)[C@@H]3O)c(C)c2)cn1
**Q:** Could you check which of a and b has a smaller value for remaining at 0.5 h? Kindly state the label of the option you pick.
**A:** b
(b: 61%, a: 91%)

---

- protocol_notes: Metabolic stability in mouse liver microsomes after 30 mins
- Assay type: ADME, microsome
- test_conditions: read-out: Stability
property_label: remaining at 0.5 h (%)

[
  {
    "smiles_data": "Cc1cc(-c2ccc(=O)n(CC(C)C)c2)ccc1S[C@H]1O[C@H](CO)[C@@H](O)[C@H](O)[C@@H]1O",
    "value_units": "%",
    "remaining at 0.5 h": 95
  },
  {
    "smiles_data": "Cc1cc(-c2ccc(=O)n(CC(C)(C)O)c2)ccc1S[C@H]1O[C@H](CO)[C@@H](O)[C@H](O)[C@@H]1O",
    "value_units": "%",
    "remaining at 0.5 h": 97
  },
  {
    "smiles_data": "COc1ccc(-c2ccc(S[C@H]3O[C@H](CO)[C@@H](O)[C@H](O)[C@@H]3O)c(C)c2)cn1",
    "value_units": "%",
    "remaining at 0.5 h": 100
  }
]

Data origin, for the record: ChEMBL document CHEMBL4229447
